Average ALPHA signal at 200 μM (std. dev.) values for the compounds below.
# target_system: TLX LBD (Homo sapiens (Human))
# Sequence (Q9Y466 155-383): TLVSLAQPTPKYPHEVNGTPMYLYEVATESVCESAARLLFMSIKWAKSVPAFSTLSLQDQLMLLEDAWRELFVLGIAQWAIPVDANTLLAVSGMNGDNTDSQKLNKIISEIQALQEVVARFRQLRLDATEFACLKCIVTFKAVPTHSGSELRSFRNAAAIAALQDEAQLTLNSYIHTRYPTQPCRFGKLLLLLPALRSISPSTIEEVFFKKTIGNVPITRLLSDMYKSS
# measurement_protocol: ALPHA screen assay for TLX LBD and coactivator peptide recruitment
# Format: biochemical
# settings: Table 3; 200 μM; mean (std. dev.)

Recorded results for 2 compounds are shown here.
>>> measured("CC(C)CCNc1ncccc1C(=O)N1CCN(C)C[C@H]1C [Compound 50]")
"0.93 (0.05)"
>>> measured("CNc1ncccc1C(=O)N1CCN(Cc2ccccc2)[C@H](C)C1 [Compound 88]")
"2.17 (0.21)"

Shifting focus to the compound that follows.
Ask: Quick check: Average ALPHA signal at 200 μM (std. dev.) of CC(C)Nc1ncccc1C(=O)N1CCN(Cc2ccccc2)[C@H](C)C1 [Compound 85] ?
Result: 1.48 (0.16)
